Reported IC50, Epidermal growth factor receptor (Homo sapiens, UniProt P00533).

# mol, IC50, nM
measured = [
    ("CCOC(=O)c1cn2ncnc(NCc3ccccc3)c2c1CC", 200),
    ("CCc1c(C(=O)NC)cn2ncnc(Nc3ccc4c(cnn4Cc4ccccc4)c3)c12", 70),
    ("CCc1c(CC(N)=O)cn2ncnc(Nc3ccc4c(cnn4Cc4ccccc4)c3)c12", 1100),
]

* * *

Reported IC50, UniProt P00533.
metricName: IC50

# mol, metricName, result
measured = [
    ("CCOC(=O)c1cn2ncnc(Nc3ccc(Oc4ccccc4)cc3)c2c1CC", "IC50", "610 nM"),
    ("CCOC(=O)c1cc2c(Nc3ccc4c(cnn4Cc4ccccc4)c3)ncnn2c1", "IC50", "120 nM"),
    ("CCc1c(C(=O)O)cn2ncnc(Nc3ccc4c(cnn4Cc4ccccc4)c3)c12", "IC50", "20 nM"),
    ("CCc1c(CC(=O)O)cn2ncnc(Nc3ccc4c(cnn4Cc4ccccc4)c3)c12", "IC50", "1600 nM"),
    ("CCc1c(C(=O)N(C)C)cn2ncnc(Nc3ccc4c(cnn4Cc4ccccc4)c3)c12", "IC50", "200 nM"),
    ("CCc1c(C(=O)NCCCn2ccnc2)cn2ncnc(Nc3ccc4c(cnn4Cc4ccccc4)c3)c12", "IC50", "40 nM"),
    ("CCc1c(NC(=O)OCCn2ccnc2)cn2ncnc(Nc3ccc4c(cnn4Cc4ccccc4)c3)c12", "IC50", "40 nM"),
    ("CCc1c(C(N)=O)cn2ncnc(Nc3ccc4c(cnn4Cc4ccccc4)c3)c12", "IC50", "120 nM"),
    ("CCNCc1cn2ncnc(Nc3ccc4c(cnn4Cc4ccccc4)c3)c2c1CC", "IC50", "7400 nM"),
    ("CCOC(=O)c1cn2ncnc(Nc3cccc(Br)c3)c2c1CC", "IC50", "60 nM"),
]
